- method.summary: inhibitors of VEEV TC-83 cytopathic effect, confirmation, Vero cells (AID 588727)
- measurement.parameters: VEEV TC-83 cytopathic effect inhibition, at 20 µM, active compounds read high
About 450 (0.13%) of roughly 350,000 compounds were called active. These entries were drawn from the full list. Entries with a potency or affinity are not part of this list.
Recorded inhibition by entry
Give a bare numeral; the unit % is implied.

Answered examples (5):
>>> observed_measurement("Cc1cc(-c2nnc(CCC(=O)NC(C)c3ccc(F)cc3)o2)no1 (stereo not drawn)")
0.09
>>> observed_measurement("O=C(O)CSc1nnc(Cc2ccccc2)n1-c1ccccc1")
4.71
>>> observed_measurement("CCn1c(SCC(=O)N/N=C/c2ccc(OC)c(OC)c2)nc2ccccc21")
4.2
>>> observed_measurement("Cc1cc(C)cc(NC(=O)CSc2nc3ccccc3nc2N2CCCCC2)c1")
3.44
>>> observed_measurement("Cc1cc(C)cc(NC(=O)CSc2nc3ccccc3nc2N2CCCC2)c1")
4.9

Query: Output measured inhibition for this item: CCOC(=O)c1[nH]c(COC(=O)c2ccccc2NC(=O)c2ccco2)c(C(=O)OCC)c1C
Response: 1.08

Query: Output measured inhibition for this item: O=C(Nc1ccc(N2CCN(C(=O)c3ccco3)CC2)cc1)c1cccnc1Cl
Response: 0.8

Query: Output measured inhibition for this item: CCOC(=O)c1c2c(c(=S)n(-c3ccccc3)c1N)CCC2
Response: 4.5

Query: Output measured inhibition for this item: Cn1ncc(Br)c1C(=O)O
Response: 0.63

Query: Output measured inhibition for this item: N=C1C(c2nc(-c3ccc(F)cc3)cs2)=C(O)CN1CCCN1CCOCC1
Response: 1.67

Query: Output measured inhibition for this item: CCOC(=O)C1=C(NC(=S)NC(=O)c2ccccc2)c2ccccc2CC1(C)CC (stereo not drawn)
Response: 11.4

Query: Output measured inhibition for this item: O=c1[nH]c(CSc2ncccn2)nc2c1cnn2-c1ccccc1
Response: 5.59

Query: Output measured inhibition for this item: CCC(O)CC(C(=O)NNc1ccccc1)C(=O)NNc1ccccc1 (stereo not drawn)
Response: 1.75

---

- method.summary: inhibitors of VEEV TC-83 cytopathic effect, confirmation, Vero cells (AID 588727)
- measurement.parameters: VEEV TC-83 cytopathic effect inhibition, at 20 µM; active compounds read high unless noted
About 450 (0.13%) of roughly 350,000 compounds were called active. Not all results are given here. Results with a measured potency or affinity are listed apart.
Recorded inhibition by entry

Answered examples (5):
>>> observed_measurement("CCN(CC)C(=O)c1sc(NC(=O)c2ccoc2C)c(C(=O)OC)c1C")
"1.79% (inactive)"
>>> observed_measurement("O=[N+]([O-])c1cccc(/C=C/c2ccccn2)c1")
"0.25% (inactive)"
>>> observed_measurement("Nc1nnnn1/N=C/C(Br)=C/c1ccccc1")
"12.1% (inactive)"
>>> observed_measurement("O=C1N/C(=N\\c2ccccn2)SC1Cc1ccccc1Cl (stereo unspecified)")
"4.16% (inactive)"
>>> observed_measurement("CC(=O)Nc1ccc(S(=O)(=O)N(C)CC(=O)OCC(=O)N(CC(C)C)C2CCS(=O)(=O)C2)cc1 (stereo unspecified)")
"6.9% (inactive)"

Query: Output measured inhibition for this item: CC(=O)/C(C#N)=C1\NC(=O)C(Cc2cc(Cl)ccc2Cl)S1 (stereo unspecified)
Response: 3.03% (inactive)

Query: Output measured inhibition for this item: COC(=O)C1=C(CSCc2ccccc2)NC(=O)NC1c1cc(C)ccc1C (stereo unspecified)
Response: 1.95% (inactive)

Query: Output measured inhibition for this item: c1ccc(C(c2c[nH]c3ccccc23)c2c[nH]c3ccccc23)nc1
Response: 6.07% (inactive)

Query: Output measured inhibition for this item: Cc1nn(C)cc1/C=N/NC(=S)Nc1ccc(Cl)cc1Cl
Response: 1.88% (inactive)

Query: Output measured inhibition for this item: CCN(CC)C(=O)Cn1cc(S(=O)(=O)CC(=O)N2CCOCC2)c2ccccc21
Response: 1.34% (inactive)

Query: Output measured inhibition for this item: BrC(=C\c1ccccc1)/C=N/n1cnnc1
Response: 5.75% (inactive)
